molecular target: canine FcRn (FcRn large subunit with canine beta-2-microglobulin) (canine); experiment: SPR pH 5.5, SASA-Fc captured on BSA, FcRn 100-800 nM
Examples of binders with documented Kd follow.
parameter: Kd (nM)

| binder | parameter | unitSymbol | assayResult |
| --- | --- | --- | --- |
| canine IgGB Fc (CH2-CH3) A426Y with N-terminal SASA tag (Fc fusion, part only; not given: SASA tag, not shown: another chain or arm of the molecule; small tags and cut ends) Fc: APEMLGGPSVFIFPPKPKDTLLIARTPEVTCVVVDLDPEDPEVQISWFVDGKQMQTAKTQPREEQFNGTYRVVSVLPIGHQDWLKGKQFTCKVNNKALPSPIERTISKARGQAHQPSVYVLPPSREELSKNTVSLTCLIKDFFPPDIDVEWQSNGQQEPESKYRTTPPQLDEDGSYFLYSKLSVDKSRWQRGDTFICYVMHEALHNHYTQESLSHSPGK | Kd | nM | 389 |
| canine IgGB Fc (CH2-CH3) N434Y with N-terminal SASA tag (Fc fusion, part only; not given: SASA tag, not shown: another chain or arm of the molecule; small tags and cut ends) Fc: APEMLGGPSVFIFPPKPKDTLLIARTPEVTCVVVDLDPEDPEVQISWFVDGKQMQTAKTQPREEQFNGTYRVVSVLPIGHQDWLKGKQFTCKVNNKALPSPIERTISKARGQAHQPSVYVLPPSREELSKNTVSLTCLIKDFFPPDIDVEWQSNGQQEPESKYRTTPPQLDEDGSYFLYSKLSVDKSRWQRGDTFICAVMHEALHYHYTQESLSHSPGK | Kd | nM | 29.1 |
| canine IgGB Fc (CH2-CH3) N434R with N-terminal SASA tag (Fc fusion, part only; not given: SASA tag, not shown: another chain or arm of the molecule; small tags and cut ends) Fc: APEMLGGPSVFIFPPKPKDTLLIARTPEVTCVVVDLDPEDPEVQISWFVDGKQMQTAKTQPREEQFNGTYRVVSVLPIGHQDWLKGKQFTCKVNNKALPSPIERTISKARGQAHQPSVYVLPPSREELSKNTVSLTCLIKDFFPPDIDVEWQSNGQQEPESKYRTTPPQLDEDGSYFLYSKLSVDKSRWQRGDTFICAVMHEALHRHYTQESLSHSPGK | Kd | nM | 182 |

Data origin: patent US20240327497A1
